Molecular target: c-Met (cytoplasmic domain) (Homo sapiens, UniProt P08581)
Construct: 10 ng/mL c-Met (cytoplasmic domain, Invitrogen Corporation #PV3143); purchased Invitrogen Corporation PV3143
Sequence (P08581 956-1390 limits assumed): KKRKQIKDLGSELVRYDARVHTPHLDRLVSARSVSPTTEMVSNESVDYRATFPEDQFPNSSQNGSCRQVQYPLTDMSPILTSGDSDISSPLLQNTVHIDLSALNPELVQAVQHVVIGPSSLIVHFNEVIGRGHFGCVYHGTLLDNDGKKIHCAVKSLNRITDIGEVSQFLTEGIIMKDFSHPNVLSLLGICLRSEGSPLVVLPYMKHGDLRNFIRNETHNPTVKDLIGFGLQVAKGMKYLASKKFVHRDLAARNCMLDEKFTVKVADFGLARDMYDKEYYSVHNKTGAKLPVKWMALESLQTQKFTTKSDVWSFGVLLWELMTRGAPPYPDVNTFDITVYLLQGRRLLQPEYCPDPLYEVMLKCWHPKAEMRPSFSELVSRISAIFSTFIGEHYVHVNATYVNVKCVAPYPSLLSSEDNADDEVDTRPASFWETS
Assay: c-Met Kinase Assay (same methods as for ALK, with modifications)
Type: biochemical
Settings: 1 μM ATP (Km level); read-out: cMet Activity (c-Met Kinase Inhibition, IC50)
QUANTITY NAME: IC50

Examples with answers:
[[record]]
molecule = "COc1cc(N2CCN(C)CC2)ccc1Nc1nc(Nc2ccc3c(c2)CCCC(=O)N3C(C)C)ncc1Cl [Example 674]"
quantity_name = "IC50"
result = "1 to 10 µM"

[[record]]
molecule = "CNC(=O)c1cc(OC)ccc1Nc1nc(Nc2ccc3c(c2)C(C)(C)CCC(=O)N3)ncc1Cl [Example 609]"
quantity_name = "IC50"
result = "0.1 to 1 µM"

[[record]]
molecule = "CS(=O)(=O)N[C@@H]1CCCC[C@H]1Nc1nc(Nc2ccc3c(c2)CNCCS3)ncc1Cl [Example 519]"
quantity_name = "IC50"
result = "1 to 10 µM"

[[record]]
molecule = "COc1cc2c(cc1Nc1ncc(Cl)c(N[C@H]3[C@@H](C(N)=O)[C@@H]4C=C[C@H]3C4)n1)CCN(C(=O)C1COCCO1)CC2 (stereo partly shown) [Example 635]"
quantity_name = "IC50"
result = "> 10 µM"

[[record]]
molecule = "Cn1ccnc1-c1ccccc1Nc1nc(Nc2cccc3c2OCCCC3(C)C)ncc1Cl [Example 879]"
quantity_name = "IC50"
result = "> 10 µM"


Prompt line: c-Met (cytoplasmic domain) (Homo sapiens, UniProt P08581) / IC50 / CN1CCN(C2CCN(C3CCc4ccc(Nc5ncc(Cl)c(N[C@@H]6CCCC[C@H]6NS(C)(=O)=O)n5)cc4CC3)CC2)CC1 (stereo partly shown) [Example 886] : value?
Response line: 1 to 10 µM

Prompt line: c-Met (cytoplasmic domain) (Homo sapiens, UniProt P08581) / IC50 / COc1ccc(Nc2nc(Nc3ccc4c(c3)C(C)(C)CCC(=O)N4)ncc2Cl)c(-n2cccn2)c1 [Example 611] : value?
Response line: 1 to 10 µM

Prompt line: c-Met (cytoplasmic domain) (Homo sapiens, UniProt P08581) / IC50 / CC1(C)CCC(=O)Nc2ccc(Nc3ncc(Cl)c(Nc4ccccc4-c4cnccn4)n3)cc21 [Example 975] : value?
Response line: 1 to 10 µM

Prompt line: c-Met (cytoplasmic domain) (Homo sapiens, UniProt P08581) / IC50 / COCCN(C)C1CCc2ccc(Nc3ncc(Cl)c(N[C@@H]4CCCC[C@H]4NS(C)(=O)=O)n3)c(OC)c2CC1 (stereo partly shown) [Example 702] : value?
Response line: > 10 µM

Prompt line: c-Met (cytoplasmic domain) (Homo sapiens, UniProt P08581) / IC50 / CNC(=O)[C@H]1[C@@H](Nc2nc(Nc3ccc4c(c3)CCN(CCOC)CC4)ncc2Cl)[C@@H]2C=C[C@H]1C2 (relative stereo) [Example 615] : value?
Response line: 0.1 to 1 µM

====

Target: c-Met (cytoplasmic domain) (Homo sapiens)
Construct: 10 ng/mL c-Met (cytoplasmic domain, Invitrogen Corporation #PV3143); purchased Invitrogen Corporation PV3143
Test: c-Met Kinase Assay (same methods as for ALK, with modifications)
Format: biochemical
Settings: 1 μM ATP (Km level), 10 ng/mL c-Met; read-out: cMet Activity (c-Met kinase inhibition, IC50 class)
pIC50: −log10 of the molar value.
The following molecules are shown together with reported pIC50 values.

[[record]]
molecule = "CNC(=O)c1sccc1Nc1nc(Nc2ccc3c(c2)OCCCN3C(=O)OC(C)C)ncc1Cl"
quantity_name = "pIC50"
result = "6.00 to 7.00"

[[record]]
molecule = "COc1cc2c(cc1Nc1ncc(Cl)c(Nc3ccccc3-n3cccn3)n1)CCN(CC(=O)N(C)C)CC2"
quantity_name = "pIC50"
result = "< 5.00"

[[record]]
molecule = "CCN1C(=O)CCC(C)(C)c2ccc(Nc3ncc(Cl)c(Nc4c(F)cccc4S(C)(=O)=O)n3)cc21"
quantity_name = "pIC50"
result = "5.00 to 6.00"

[[record]]
molecule = "COCCN1CCc2ccc(Nc3ncc(Cl)c(Nc4c(F)cccc4C(N)=O)n3)cc2CC1"
quantity_name = "pIC50"
result = "6.00 to 7.00"

[[record]]
molecule = "CCN1C(=O)C(NC(=O)C2CC2)CCc2c1ccc(Nc1ncc(Cl)c(Nc3ccccc3S(=O)(=O)N(C)C)n1)c2OC (stereo not shown)"
quantity_name = "pIC50"
result = "< 5.00"

[[record]]
molecule = "COc1cc2c(cc1Nc1ncc(Cl)c(N[C@@H]3CCCC[C@H]3NS(C)(=O)=O)n1)CCC(N1CCN(C)CC1)CC2 (single isomer, unassigned) [Example 1101]"
quantity_name = "pIC50"
result = "< 5.00"

[[record]]
molecule = "COc1ccc2c(c1Nc1ncc(Cl)c(Nc3ccccc3S(=O)(=O)N(C)C)n1)CCC(N1CCOCC1)CC2 (stereo not shown)"
quantity_name = "pIC50"
result = "< 5.00"

[[record]]
molecule = "CN1C(=O)CCC(C)(C)c2cc(Nc3ncc(Cl)c(Nc4ccccc4S(=O)(=O)N(C)C)n3)ccc21"
quantity_name = "pIC50"
result = "6.00 to 7.00"


Prompt line: # input molecule: COc1cccc(C(=O)NCC#N)c1Nc1nc(Nc2ccc3c(c2)CCCC(=O)N3C)ncc1Cl ; wanted: its pIC50
Response line: 6.00 to 7.00

Prompt line: # input molecule: CNC(=O)C1(Nc2nc(Nc3cc4c(cc3OC)CCN(CC(=O)N(C)C)CC4)ncc2Cl)CC1 ; wanted: its pIC50
Response line: < 5.00

Prompt line: # input molecule: COc1cc2c(cc1Nc1ncc(Cl)c(Nc3ccccc3S(=O)(=O)N3CCCC3)n1)CCC(NCCO)CC2 (stereo not shown) ; wanted: its pIC50
Response line: 5.00 to 6.00
